Collected melting point values appear next to each entry.

- molecule: "CCCc1nc2c(N)nc3ccccc3c2n1CCCCN(OC)C(N)=O [Example 7]"
  melting point: "179 to 181 °C"
- molecule: "CCCc1nc2c(N)nc3cccnc3c2n1CCCCN(OC)C(=O)Nc1ccccc1 [Example 19]"
  melting point: "155 to 156 °C"
- molecule: "CCCc1nc2c(N)nc3ccccc3c2n1CCCCN(OC)C(C)=O [Example 6]"
  melting point: "138 to 140 °C"
- molecule: "CO/N=C/CCCn1c(C)nc2c(N)nc3ccccc3c21 [Example 45]"
  melting point: "153 to 155 °C"
- molecule: "CCCc1nc2c(N)nc(C)c(C)c2n1CCCCN(O)C(=O)Nc1ccccc1 [Example 24]"
  melting point: "159 to 160.5 °C"
